system: MERTK; design: species or system human, MV4-11 + K-562 + COLO205 + SK-N-BE2 + OVCAR-8; settings: read-out: apparent Kd; compound concentrations:100 nM and 1000 nM (sheet 'Samples'); n = 1
Measured Quantity: potency estimated from few doses (nM)

>  <Compound>
CC(=O)N[C@@H](Cc1ccc(OP(=O)(O)O)cc1)C(=O)N[C@H]1CCC(=O)N2CCC[C@@H](C(=O)NC3CCc4ccccc43)N2C1=O (stereo partly drawn)

>  <Target Of Assay>
MERTK

>  <Recorded Value>
1220

$$$$
>  <Compound>
O=C1NC(=O)C(N2CCc3ccccc32)=C1c1ccccc1Cl

>  <Target Of Assay>
MERTK

>  <Recorded Value>
1850

$$$$
>  <Compound>
CS(=O)(=O)CCNCc1nc(-c2ccc3ncnc(Nc4ccc(F)c(Cl)c4)c3c2)cs1.Cl [GW461104A]

>  <Target Of Assay>
MERTK

>  <Recorded Value>
1190

$$$$
>  <Compound>
O=C(Nc1n[nH]c2nc(-c3cccs3)c(Br)cc12)C1CCCC1

>  <Target Of Assay>
MERTK

>  <Recorded Value>
1720

$$$$
>  <Compound>
Cl.Cn1cc(C2=C(c3cn(CCCN)c4ccccc34)C(=O)NC2=O)c2ccccc21

>  <Target Of Assay>
MERTK

>  <Recorded Value>
1370

$$$$
>  <Compound>
NCCNS(=O)(=O)c1ccc(-c2ccnc3[nH]ccc23)cc1 [GSK977617A]

>  <Target Of Assay>
MERTK

>  <Recorded Value>
1440

$$$$

====

tested on: PIK3CA; set-up: species or system human, MV4-11 + K-562 + COLO205 + SK-N-BE2 + OVCAR-8; details: read-out: apparent Kd; compound concentrations:100 nM and 1000 nM (sheet 'Samples'); n = 1
Entries and their potency estimated from few doses values follow.

>  <Compound>
COc1ccc(C2=C(Nc3cccc(O)c3)C(=O)NC2=O)cc1

>  <potency estimated from few doses [nM]>
115

$$$$
>  <Compound>
Cc1cnc(Nc2ccc(F)cc2Cl)nc1-c1c[nH]c(C(=O)N[C@H](CO)c2cccc(Cl)c2)c1 [Vertex11e]

>  <potency estimated from few doses [nM]>
142

$$$$
>  <Compound>
O=c1cc(N2CCOCC2)nc2n(Cc3ccc(F)c(Cl)c3)ccn12 [GSK2297099A]

>  <potency estimated from few doses [nM]>
186

$$$$
>  <Compound>
Cc1cc(Nc2nc(-c3cccc(C)n3)nc3ccccc23)ccn1 [GW872411X]

>  <potency estimated from few doses [nM]>
247

$$$$
>  <Compound>
Cl.Cl.c1ccc(-c2cc3ccncc3cc2OC2CCNCC2)cc1.c1ccc(-c2cc3ccncc3cc2OC2CCNCC2)cc1 [GSK1122999D]

>  <potency estimated from few doses [nM]>
287

$$$$
>  <Compound>
COc1cccc(C2=C(Nc3cccc(C(=O)O)c3)C(=O)NC2=O)c1

>  <potency estimated from few doses [nM]>
226

$$$$
>  <Compound>
COc1ccc2[nH]c3c4[nH]c5ccc(OC)cc5c4c4c(c3c2c1)C(=O)NC4=O [GW296115X]

>  <potency estimated from few doses [nM]>
254

$$$$
>  <Compound>
CN1CCC(C(=O)Nc2n[nH]c3nnc(-c4ccccc4)cc23)CC1.Cl

>  <potency estimated from few doses [nM]>
183

$$$$
>  <Compound>
CN1CCN(CCNc2nc3cc(Oc4ccc(NC(=O)Nc5cc(C(F)(F)F)ccc5F)cc4)ccc3[nH]2)CC1.CN1CCN(CCNc2nc3cc(Oc4ccc(NC(=O)Nc5cc(C(F)(F)F)ccc5F)cc4)ccc3[nH]2)CC1.Cl.Cl [GW768504A]

>  <potency estimated from few doses [nM]>
230

$$$$
>  <Compound>
O=C(Nc1n[nH]c2nc(-c3ccccc3)c(Br)cc12)C1CC1

>  <potency estimated from few doses [nM]>
245

$$$$
>  <Compound>
Cc1cccc(Nc2nc(N[C@H]3CCNC3)ncc2C(N)=O)c1.Cl [GSK2197149A]

>  <potency estimated from few doses [nM]>
110

$$$$
